target: KRAS G12C (Homo sapiens, UniProt P01116+P62937, G12C); experiment: Ras-Raf disruption/FRET/MOA assay, KRAS G12C; type: biochemical; conditions: disruption of BRAF RBD binding, with Cyclophilin A; read-out: KRAS G12C FRET IC50
Sequence (P01116 1-169 isoform P01116-2 G12C limits assumed, one chain of several): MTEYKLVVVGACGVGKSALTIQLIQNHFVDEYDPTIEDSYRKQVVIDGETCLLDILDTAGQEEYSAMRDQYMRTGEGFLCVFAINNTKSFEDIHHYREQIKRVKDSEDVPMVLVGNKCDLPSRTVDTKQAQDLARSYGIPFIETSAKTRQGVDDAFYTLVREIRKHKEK
PROPERTY_LABEL: IC50

Ask: Which IC50 value is on record for "CCn1c(-c2cccnc2[C@H](C)OC)c2c3cc(ccc31)-c1cc(CF)cc(c1)C[C@H](NC(=O)[C@H](C1CCCC1)N1CC[C@]3(CCN(C(=O)[C@@H]4N[C@@H]4C4CC4)C3)C1=O)C(=O)N1CCC[C@H](N1)C(=O)OCC(C)(C)C2" ?
Reply: 100 to 1000 nM

Ask: Which IC50 value is on record for CCn1c(-c2cnccc2COC)c2c3cc(ccc31)-c1cc(O)cc(c1)C[C@H](NC(=O)[C@H](C(C)C)N(C)C(=O)CN(C)C(=O)[C@H]1CN1S(C)(=O)=O)C(=O)N1CCC[C@H](N1)C(=O)OCC(C)(C)C2 (stereo partly shown) ?
Reply: 10 to 100 nM

Ask: Which IC50 value is on record for "CCn1c(-c2cccnc2[C@H](C)OC)c2c3cc(ccc31)-c1csc(n1)C[C@H](NC(=O)[C@H](C1CCCC1)N1CC[C@]3(CCN(C(=O)[C@H]4CN4)C3)C1=O)C(=O)N1CCC[C@H](N1)C(=O)OCC(C)(C)C2" ?
Reply: 10 to 100 nM

Ask: Which IC50 value is on record for "CCn1c(-c2cccnc2[C@H](C)OC)c2c3cc(ccc31)-c1cc(O)cc(c1)C[C@H](NC(=O)[C@H](C(C)C)N1CCCC3(CN(C(=O)[C@H]4CN4)C3)C1=O)C(=O)N1CCC[C@H](N1)C(=O)OCC(C)(C)C2" ?
Reply: < 10 nM

====

molecular target: KRAS G12D (Homo sapiens, UniProt P01116+P62937, G12D); assay: Ras-Raf disruption/FRET/MOA assay, KRAS G12D; type: biochemical; details: disruption of BRAF RBD binding, with Cyclophilin A; read-out: KRAS G12D FRET IC50
Sequence (P01116 1-169 isoform P01116-2 G12D limits assumed): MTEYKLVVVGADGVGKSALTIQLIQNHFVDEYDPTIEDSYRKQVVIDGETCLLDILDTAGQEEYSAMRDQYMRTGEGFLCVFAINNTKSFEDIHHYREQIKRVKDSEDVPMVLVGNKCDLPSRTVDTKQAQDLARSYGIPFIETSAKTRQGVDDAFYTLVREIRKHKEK
Sequence (P62937 whole entry): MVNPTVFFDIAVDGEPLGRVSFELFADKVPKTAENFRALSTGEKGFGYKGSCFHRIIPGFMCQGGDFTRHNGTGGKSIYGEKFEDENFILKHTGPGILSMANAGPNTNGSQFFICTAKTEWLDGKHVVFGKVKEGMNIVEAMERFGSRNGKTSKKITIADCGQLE
PROPERTY_LABEL: IC50

Ask: Which IC50 value is on record for "CCn1c(-c2cccnc2[C@H](C)OC)c2c3cc(ccc31)-c1csc(n1)C[C@H](NC(=O)[C@H](C1CCCC1)N1CC[C@]3(CCN(C(=O)[C@H]4CN4)C3)C1=O)C(=O)N1CCC[C@H](N1)C(=O)OCC(C)(C)C2" ?
Reply: 1000 to 10000 nM

Ask: Which IC50 value is on record for CCn1c(-c2cccnc2[C@H](C)OC)c2c3cc(ccc31)-c1cc(O)cc(c1)C[C@H](NC(=O)[C@H](C(C)C)N(C)C(=O)N1CCN(C(=O)[C@@H]3CN3)CC1)C(=O)N1CCC[C@H](N1)C(=O)OCC(C)(C)C2 (atropisomer, axis not shown) ?
Reply: 100 to 1000 nM

Ask: Which IC50 value is on record for "CCn1c(-c2cnccc2COC)c2c3cc(ccc31)-c1cc(O)cc(c1)C[C@H](NC(=O)[C@H](C(C)C)N(C)C(=O)[C@H]1CCN(C(=O)N3C[C@H]3C(=O)OC)C1)C(=O)N1CCC[C@H](N1)C(=O)OCC(C)(C)C2" ?
Reply: 1000 to 10000 nM

Ask: Which IC50 value is on record for "CCn1c(-c2cccnc2[C@H](C)OC)c2c3cc(ccc31)-c1csc(n1)C[C@H](NC(=O)[C@H](C(C)C)N(C)C(=O)N1C3CCC1CN(C(=O)[C@H]1CN1)C3)C(=O)N1CCC[C@H](N1)C(=O)OCC(C)(C)C2" ?
Reply: 100 to 1000 nM

====

Target: KRAS G12V (Homo sapiens, UniProt P01116+P62937, G12V)
Sequence (P01116 1-169 isoform P01116-2 G12V limits assumed): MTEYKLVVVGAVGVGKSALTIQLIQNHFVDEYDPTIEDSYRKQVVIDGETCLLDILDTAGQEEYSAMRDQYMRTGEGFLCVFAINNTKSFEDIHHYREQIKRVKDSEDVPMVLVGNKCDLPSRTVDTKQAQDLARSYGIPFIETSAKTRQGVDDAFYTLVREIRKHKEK
Sequence (P62937 whole entry): as the sequence (P62937 whole entry) above
Test: Ras-Raf disruption/FRET/MOA assay, KRAS G12V
Format: biochemical
Conditions: disruption of BRAF RBD binding, with Cyclophilin A; read-out: KRAS G12V FRET IC50
Source text: Disruption of B-Raf Ras-Binding Domain (BRAF^RBD) Interaction with K-Ras by Compounds of the Invention (Also Called a FRET Assay or an MOA Assay) Note—The following protocol describes a procedure for monitoring disruption of K-Ras G12C (GMP-PNP) binding to BRAF^RBD by a compound of the invention. This protocol may also be executed substituting other Ras proteins or nucleotides, such as K-Ras G12D and K-Ras G13D. […]
Exercise: state measured IC50 for each of the molecules provided.

Ask: Which IC50 value is on record for CCn1c(-c2cnccc2COC)c2c3cc(ccc31)-c1cc(O)cc(c1)C[C@H](NC(=O)[C@H](C(C)C)N(C)C(=O)CN(C)C(=O)[C@@H]1CN1C(=O)OC)C(=O)N1CCC[C@H](N1)C(=O)OCC(C)(C)C2 [Compound 39] ?
Reply: 100 to 1000 nM

Ask: Which IC50 value is on record for CCn1c(-c2cccnc2[C@H](C)OC)c2c3cc(ccc31)-c1cccc(c1)C[C@H](NC(=O)[C@H](C(C)C)N1CC[C@H](CN=C=NCCOC)C1)C(=O)N1CCC[C@H](N1)C(=O)OCC(C)(C)C2 [Compound 122] ?
Reply: 1000 to 10000 nM

Ask: Which IC50 value is on record for CCn1c(-c2cnccc2COC)c2c3cc(ccc31)-c1cc(O)cc(c1)C[C@H](NC(=O)[C@H](C(C)C)N(C)C(=O)CN(C)C(=O)[C@H]1CN1C(=O)OC)C(=O)N1CCC[C@H](N1)C(=O)OCC(C)(C)C2 [Example 38] ?
Reply: 100 to 1000 nM

Ask: Which IC50 value is on record for CCn1c(-c2cccnc2[C@H](C)OC)c2c3cc(ccc31)-c1csc(n1)C[C@H](NC(=O)[C@H](C(C)C)N(C)C(=O)N1C3CCC1CN(C(=O)[C@@H]1CN1)C3)C(=O)N1CCC[C@H](N1)C(=O)OCC(C)(C)C2 [Compound 304] ?
Reply: 100 to 1000 nM

Ask: Which IC50 value is on record for CCn1c(-c2cnccc2COC)c2c3cc(ccc31)-c1cc(O)cc(c1)C[C@H](NC(=O)[C@H](C(C)C)N(C)C(=O)CN(C)C(=O)[C@@H]1[C@H](C(=O)OC)N1[S@@+]([O-])C(C)(C)C)C(=O)N1CCC[C@H](N1)C(=O)OCC(C)(C)C2 (some centres unmarked) [Compound 50] ?
Reply: 10 to 100 nM

Ask: Which IC50 value is on record for CCn1c(-c2cccnc2[C@H](C)OC)c2c3cc(ccc31)-c1cc(O)cc(c1)C[C@H](NC(=O)[C@H](C1CCCC1)N1CC[C@@]3(CCN(C(=O)[C@@H]4N[C@@H]4C4CC4)C3)C1=O)C(=O)N1CCC[C@H](N1)C(=O)OCC(C)(C)C2 [Compound 215] ?
Reply: 100 to 1000 nM

Ask: Which IC50 value is on record for CCn1c(-c2cccnc2[C@H](C)OC)c2c3cc(ccc31)-c1cc(O)cc(c1)C[C@H](NC(=O)[C@H](C(C)C)N1CC[C@]3(CCCN(C(=O)[C@H]4CN4)C3)C1=O)C(=O)N1CCC[C@H](N1)C(=O)OCC(C)(C)C2 [Compound 200] ?
Reply: 10 to 100 nM

Ask: Which IC50 value is on record for CCn1c(-c2cccnc2[C@H](C)OC)c2c3cc(ccc31)-c1csc(n1)C[C@H](NC(=O)[C@H](C1CCCC1)N1CC[C@]3(CCN(C(=O)[C@@H]4N[C@@H]4C4CC4)C3)C1=O)C(=O)N1CCC[C@H](N1)C(=O)OCC(C)(C)C2 [Compound 234] ?
Reply: 1000 to 10000 nM

Ask: Which IC50 value is on record for CCn1c(-c2cccnc2[C@H](C)OC)c2c3cc(ccc31)-c1cc(O)cc(c1)C[C@H](NC(=O)[C@H](C(C)C)N1CCC3(CCN(C(=O)[C@H]4CN4)CC3)C1=O)C(=O)N1CCC[C@H](N1)C(=O)OCC(C)(C)C2 [Compound 196] ?
Reply: 100 to 1000 nM

Ask: Which IC50 value is on record for CCn1c(-c2cccnc2[C@H](C)OC)c2c3cc(ccc31)-c1cc(O)cc(c1)C[C@H](NC(=O)[C@H](C(C)C)N1CC[C@]3(CCCN(C(=O)[C@@H]4CN4)C3)C1=O)C(=O)N1CCC[C@H](N1)C(=O)OCC(C)(C)C2 [Compound 192] ?
Reply: 10 to 100 nM

Ask: Which IC50 value is on record for CCn1c(-c2cnccc2COC)c2c3cc(ccc31)-c1cc(O)cc(c1)C[C@H](NC(=O)[C@H](C(C)C)N(C)C(=O)CN(C)C(=O)[C@H]1CN1S(C)(=O)=O)C(=O)N1CCC[C@H](N1)C(=O)OCC(C)(C)C2 (some centres unmarked) [Example 36] ?
Reply: 10 to 100 nM
